protocol-description: chemical genetic growth profiling, strain panel (AID 1159580);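 note: tested at 20 µM; growth read once vehicle control cultures reached saturation at 30 °C; 1 = growth at the plate median or of vehicle wells; lower values mean less growth of the strain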
test-settings: S. cerevisiae deletion strains, growth OD, locus YNR049C, strain mso1, stronger effect = lower value
The whole screen tested about 5,500 compounds, of which about 2,000 (36%) were called active. Inconclusive results (about 18%) are left out. This is one part of the list.
Each entry below carries its recorded normalized growth.
measured-endpoint: normalized growth

compound	measured-endpoint	numeric-result
COc1cc(NS(C)(=O)=O)ccc1Cc1c2ccccc2nc2ccccc12	normalized growth	0.989
O=c1oc2ccccc2cc1O	normalized growth	0.998
NCC[C@@H](O)C(=O)N[C@@H]1C[C@H](N)[C@@H](O[C@H]2O[C@H](CN)[C@@H](O)[C@H](O)[C@H]2O)[C@H](O)[C@H]1O[C@H]1O[C@H](CO)[C@@H](O)[C@H](N)C1O (stereo not given in full)	normalized growth	1.03
O=c1cccc2n1CC1CC2CN2CCCC[C@@H]12 (stereo not given in full)	normalized growth	0.974
NC(C(=O)O)C(O)C(=O)O (stereo not given)	normalized growth	0.981
